I'd appreciate it if you could supply relative solubility at 20 uM values for the items below.
Conditions: 20.0 µM
One number for each entry.

compound	measured-quantity	test-value
O=C(C1CCN(c2ccncc2)CC1)N1CCOCC1	relative solubility at 20 uM	1
C=CC(=O)N(c1ccc(C(C)(C)C)cc1)C(C(=O)NC(C)(C)C)c1cccnc1C (centres undefined)	relative solubility at 20 uM	0.99
Cc1cc(Cl)cc(NC(=O)Nc2cccnc2)c1	relative solubility at 20 uM	1
CCc1ccccc1Nc1nc(N)nc(CSc2nnc3ccccn23)n1	relative solubility at 20 uM	0.99
C=CC(=O)N(c1ccc(C(C)(C)C)cc1)C(C(=O)Nc1ccc(F)cc1C)c1cccnc1 (centres undefined)	relative solubility at 20 uM	0.96
C=CC(=O)N(c1cc(C(C)(C)C)on1)C(C(=O)NC(C)(C)C)c1cccnc1 (centres undefined)	relative solubility at 20 uM	0.98
C=CC(=O)N(c1ccc2ncsc2c1)C(C(=O)Nc1cccc(CC)c1)c1cccnc1 (centres undefined)	relative solubility at 20 uM	0.8
NS(=O)(=O)c1ccc(N2CCC(c3ccncc3)CC2)cc1	relative solubility at 20 uM	1

Would you kindly look at the next entry?
stdin: Write down relative solubility at 20 uM measured for item O=C(Nc1ccc(Oc2ncccn2)cc1)C(=O)N1CCN(Cc2cccs2)CC1
stdout: 1

---

Biological target: SARS-CoV-2 Main Protease (SARS-CoV-2)
Details: 20.0 µM
Please respond with reported inhibition for every item in the list.
One number for each entry, in %.

Kindly give each listed record's inhibition.
1. CC(C)Cn1cc(NC(=O)N2CCC(Cc3ccccc3)CC2)c2ccccc2c1=O
2. COc1cc(NC(=O)C(=O)Nc2cc(OC)c(OC)c(OC)c2)cc(OC)c1OC
3. CN(CCNC(=O)c1cc(=O)[nH]c2ccccc12)c1ccccc1
4. Cc1ccncc1NC(=O)Cc1cccc(F)c1
5. O=C(Nc1ccnnc1)NC(Cc1ccccc1)C(=O)N1CCCC1 (stereo not given)

stdout:
[-4.27, -9.4, -2.32, 39.6, 0.0835]

---

Details: 100.0 µM
Task for the reader: assign each of the following compounds its reported relative solubility at 100 uM.
Give bare numbers.

Below are some compounds; for each one, tell me its relative solubility at 100 uM.
1. Cc1cc2c(cc1C)[C@H](C(=O)Nc1cncnc1-n1cccn1)CO2 (stereo in doubt)
2. CC(=O)N1CCN(S(=O)(=O)C2=CC[SH]=C2)CC1
3. C=CC(=O)N(c1cc(C(C)(C)C)n[nH]1)C(C(=O)Nc1ccc(Cl)cc1)c1cccnc1 (centres undefined)
4. C=CC(=O)N(c1ccc(C(F)(F)F)cc1)C(C(=O)Nc1ccccc1Br)c1cccnc1 (centres undefined)
5. CNC(=O)OC1CCN(S(=O)(=O)c2ccccc2)CC1

stdout:
0.76
1
0.68
0.83
1

---

Conditions: 100.0 µM
Assign relative solubility at 100 uM to each entry below.
One number for each entry.

The following compounds have reported results that may help.
compound	relative solubility at 100 uM
O=C(Nc1ccc(Oc2ncccn2)cc1)C(=O)N1CCN(Cc2cccs2)CC1	1
C=CC(=O)N(c1ccc(C(C)(C)C)cc1)C(C(=O)NC(C)(C)C)c1cccnc1C (configuration not stated)	0.99
C=CC(=O)N(c1ccc(C(C)OC)cc1)C(C(=O)NC(C)(C)C)c1cccnc1 (configuration not stated)	0.86
Cc1nnn(NC(=O)Cc2cccc(Cl)c2)c1C	1.01
Cc1ccncc1NC(=O)C(C)CC1CC1 (configuration not stated)	1
C/C=C/C(=O)Nc1cccc(OC2CC(=O)N2)c1 (configuration not stated)	1

Continue with the compound presented below.
stdin: Fill in reported relative solubility at 100 uM for this entry: COc1c(NC(=O)Cc2cccc(Cl)c2Cl)c(C)nn1C
stdout: 1.01
